Numbers sourced from patent EP4703354A1.

Listed here are compounds together with their documented Cmax.
- test name: in vivo pharmacokinetic study in SD rats
- applied conditions: male, rat, plasma, 1 mg/kg, IV
reported endpoint: Cmax (ng/mL)

| compound | reported endpoint | test result |
| --- | --- | --- |
| CN(C)C(=O)c1nccc(Nc2c(N[C@@H](C#CC3CCC3)[C@]3(C)CC(F)(F)CO3)c(=O)c2=O)c1O (single isomer, unassigned) [110A] | Cmax | 1860 |
| Cc1cccnc1[C@H](Nc1c(Nc2ccnc(C(=O)N(C)C)c2O)c(=O)c1=O)C1(C)CC(F)(F)C1 | Cmax | 3670 |
| CN(C)C(=O)c1nccc(Nc2c(N[C@@H](c3nc(Cl)ccc3F)[C@@]3(C)CC(F)(F)CO3)c(=O)c2=O)c1O [068B] | Cmax | 3630 |
| Cc1cc(F)cnc1[C@H](Nc1c(Nc2ccnc(C(=O)N(C)C)c2O)c(=O)c1=O)[C@@]1(C)CC(F)(F)CO1 [093B] | Cmax | 1890 |
| Cc1cccnc1[C@H](Nc1c(Nc2ccnc(C(=O)N(C)C)c2O)c(=O)c1=O)C1(C)CCCC1 | Cmax | 2240 |
| Cc1cccnc1[C@H](Nc1c(Nc2ccnc(C(=O)N(C)C)c2O)c(=O)c1=O)[C@]1(C)CC(F)(F)CO1 (single isomer, unassigned) [128B] | Cmax | 3270 |
| CN(C)C(=O)c1nccc(Nc2c(N[C@@H](c3nc(CF)ccc3F)C3(C)CCCC3)c(=O)c2=O)c1O | Cmax | 4460 |
| Cc1cc(F)cnc1[C@H](Nc1c(Nc2ccnc(C(=O)N(C)C)c2O)c(=O)c1=O)[C@]1(C)CC(F)(F)CO1 [093A] | Cmax | 4840 |
| CN(C)C(=O)c1nccc(Nc2c(NC(c3nc(F)ccc3F)C3(C)CC4CC4C3)c(=O)c2=O)c1O (stereo not drawn) | Cmax | 3900 |
| Cc1nccnc1[C@H](Nc1c(Nc2ccc(F)c(C(=O)N(C)C)c2O)c(=O)c1=O)C1(C)CCCC1 | Cmax | 5530 |
| CN(C)C(=O)c1nccc(Nc2c(N[C@@H](c3nc(Cl)ccc3F)C3(C)CCCC3)c(=O)c2=O)c1O | Cmax | 3890 |
| CN(C)C(=O)c1nccc(Nc2c(N[C@@H](c3nc(C(F)F)ccc3F)C3(C)CCCC3)c(=O)c2=O)c1O | Cmax | 3140 |
| CN(C)C(=O)c1nccc(Nc2c(N[C@@H](c3nc(F)ccc3F)C3(C)CCCC3)c(=O)c2=O)c1O | Cmax | 4130 |
| Cc1cccnc1[C@H](Nc1c(Nc2ccnc(C(=O)N(C)C)c2O)c(=O)c1=O)C12CC(C1)C2 | Cmax | 2280 |
| Cc1cccnc1[C@H](Nc1c(Nc2ccc(F)c(C(=O)N(C)C)c2O)c(=O)c1=O)C1(C)CC(F)(F)C1 | Cmax | 4300 |
